molecular target: Voltage-gated inwardly rectifying potassium channel KCNH2 (Homo sapiens, UniProt Q12809); details: hek293; also: in other assays of this panel Not Active means under 50% inhibition at 10 µM
Sequence (Q12809 whole entry): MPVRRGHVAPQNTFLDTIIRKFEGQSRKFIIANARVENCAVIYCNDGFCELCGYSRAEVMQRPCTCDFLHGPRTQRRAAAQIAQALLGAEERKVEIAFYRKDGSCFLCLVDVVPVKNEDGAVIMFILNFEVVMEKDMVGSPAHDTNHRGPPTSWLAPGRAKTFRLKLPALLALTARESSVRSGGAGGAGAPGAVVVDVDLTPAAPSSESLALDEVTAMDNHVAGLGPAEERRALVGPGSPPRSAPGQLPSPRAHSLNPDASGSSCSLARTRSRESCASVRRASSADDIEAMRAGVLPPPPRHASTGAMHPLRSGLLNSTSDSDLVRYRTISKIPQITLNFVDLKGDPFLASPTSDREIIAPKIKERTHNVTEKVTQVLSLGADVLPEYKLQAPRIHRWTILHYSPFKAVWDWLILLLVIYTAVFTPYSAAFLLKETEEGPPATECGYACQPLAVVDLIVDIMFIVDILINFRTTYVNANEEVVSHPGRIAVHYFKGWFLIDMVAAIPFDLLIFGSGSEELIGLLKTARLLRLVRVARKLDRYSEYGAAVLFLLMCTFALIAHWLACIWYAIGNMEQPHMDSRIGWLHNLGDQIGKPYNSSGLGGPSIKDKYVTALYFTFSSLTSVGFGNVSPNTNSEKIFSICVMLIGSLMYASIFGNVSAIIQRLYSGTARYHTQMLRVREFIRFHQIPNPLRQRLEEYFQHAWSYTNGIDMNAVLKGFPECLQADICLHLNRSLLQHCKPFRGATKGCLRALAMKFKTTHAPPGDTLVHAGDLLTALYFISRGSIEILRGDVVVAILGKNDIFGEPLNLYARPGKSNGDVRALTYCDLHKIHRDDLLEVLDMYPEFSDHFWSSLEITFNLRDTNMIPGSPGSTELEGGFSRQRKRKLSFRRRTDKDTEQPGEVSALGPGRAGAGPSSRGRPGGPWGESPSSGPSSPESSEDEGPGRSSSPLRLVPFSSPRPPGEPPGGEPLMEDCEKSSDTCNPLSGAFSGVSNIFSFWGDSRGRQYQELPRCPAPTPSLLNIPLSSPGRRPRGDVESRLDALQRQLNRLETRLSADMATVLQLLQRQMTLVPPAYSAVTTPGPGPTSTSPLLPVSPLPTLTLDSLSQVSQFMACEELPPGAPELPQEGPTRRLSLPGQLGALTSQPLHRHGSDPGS
value kind: IC50

Example entries and their recorded answers appear below.
OC[C@H]1O[C@@H]2O[C@H]3[C@H](O)[C@@H](O)[C@@H](O[C@H]4[C@H](O)[C@@H](O)[C@@H](O[C@H]5[C@H](O)[C@@H](O)[C@@H](O[C@H]6[C@H](O)[C@@H](O)[C@@H](O[C@H]7[C@H](O)[C@@H](O)[C@@H](O[C@H]8[C@H](O)[C@@H](O)[C@@H](O[C@H]1[C@H](O)[C@H]2O)O[C@@H]8CO)O[C@@H]7CO)O[C@@H]6CO)O[C@@H]5CO)O[C@@H]4CO)O[C@@H]3CO | Not Active
CC(Cl)(Cl)Cl | Not Active
CC(O)C(=O)O (stereo unspecified) | Not Active
CC1(C)[C@H](C(=O)O)N2C(=O)C[C@H]2S1(=O)=O | Not Active
CCN(CCO)CCCC(C)Nc1ccnc2cc(Cl)ccc12 (stereo unspecified) [HYDROXYCHLOROQUINE] | Not Active

// next entry
IC50 reading for `Cc1cn([C@H]2C=C[C@@H](CO)O2)c(=O)[nH]c1=O` : Not Active

----------
assay: DRUGMATRIX: GABAA, Muscimol, Central radioligand binding (ligand: [3H] Muscimol); format: cell membranes, Rattus norvegicus, Wistar, Brain, Membrane; settings: Not Active = under 50% inhibition at 10 µM
value kind: Ki

C=C(Cl)Cl | Not Active
CCCCCCNC(=O)n1cc(F)c(=O)[nH]c1=O | Not Active
O=c1[nH]c2ccccc2c2ccccc12 | Not Active
Cc1ccc(S(=O)(=O)NC(=O)NN2CCCCCC2)cc1 [TOLAZAMIDE] | Not Active
Cc1c(N)nc([C@H](CC(N)=O)NC[C@H](N)C(N)=O)nc1C(=O)N[C@H](C(=O)N[C@H](C)[C@@H](O)[C@H](C)C(=O)N[C@H](C(=O)NCCc1nc(-c2nc(C(=O)NCCC[S+](C)C)cs2)cs1)[C@@H](C)O)[C@@H](O[C@@H]1O[C@@H](CO)[C@@H](O)[C@H](O)[C@@H]1O[C@H]1O[C@H](CO)[C@@H](O)[C@H](OC(N)=O)[C@@H]1O)c1c[nH]cn1.[Br-] | Not Active

Ki reading for `CC(C)(C#N)c1cc(Cn2cncn2)cc(C(C)(C)C#N)c1` : Not Active

Ki reading for `CC12CCC(CC1)C(C)(C)O2` : Not Active

Ki reading for C[N+]1(C)[C@@H]2C[C@@H](OC(=O)[C@H](CO)c3ccccc3)C[C@H]1[C@@H]1O[C@@H]12.[Br-] [METHSCOPOLAMINE BROMIDE] : Not Active

----------
assay: DRUGMATRIX: Phorbol Ester radioligand binding (ligand: [3H] PDBu); assay type: cell membranes, Mus musculus, ICR, Brain, Membrane; settings: Not Active = under 50% inhibition at 10 µM
value kind: Ki

Example entries and their recorded answers appear below.
c1ccc2sc(SSc3nc4ccccc4s3)nc2c1 [BENZOTHIAZYL DISULFIDE] | Not Active
CN1C[C@H](CNC(=O)OCc2ccccc2)C[C@@H]2c3cccc4c3c(cn4C)C[C@H]21 | Not Active
CC1(COc2ccc(CC3SC(=O)NC3=O)cc2)CCCCC1 (centres undefined) | Not Active
OC[C@H]1O[C@@H]2O[C@H]3[C@H](O)[C@@H](O)[C@@H](O[C@H]4[C@H](O)[C@@H](O)[C@@H](O[C@H]5[C@H](O)[C@@H](O)[C@@H](O[C@H]6[C@H](O)[C@@H](O)[C@@H](O[C@H]7[C@H](O)[C@@H](O)[C@@H](O[C@H]1[C@H](O)[C@H]2O)O[C@@H]7CO)O[C@@H]6CO)O[C@@H]5CO)O[C@@H]4CO)O[C@@H]3CO | Not Active
C[C@]12CCC(=O)C[C@@H]1CC[C@@H]1[C@@H]2CC[C@]2(C)[C@@H](O)CC[C@@H]12 | Not Active
COC(=O)Nc1nc2ccc(Sc3ccccc3)cc2[nH]1 | Not Active
ClC1=C(Cl)[C@]2(Cl)[C@@H]3[C@@H]4C[C@@H]([C@H]5O[C@@H]45)[C@@H]3[C@@]1(Cl)C2(Cl)Cl | Not Active
CC(=O)[C@]1(O)Cc2c(O)c3c(c(O)c2[C@@H](O[C@H]2C[C@H](N)[C@H](O)[C@H](C)O2)C1)C(=O)c1ccccc1C3=O | Not Active

Ki reading for `O=C(O)COC(=O)Cc1ccccc1Nc1c(Cl)cccc1Cl` : Not Active

Ki reading for `Oc1ncnc2[nH]ncc12` : Not Active

Ki reading for `CCC(C)(C)C(=O)O[C@H]1C[C@@H](C)C=C2C=C[C@H](C)[C@H](CC[C@@H]3C[C@@H](O)CC(=O)O3)[C@H]21` : Not Active

Ki reading for COc1cc(NC(C)CCCN)c2ncccc2c1 (centres undefined) : Not Active

Ki reading for `CCN(CC)C(=S)SSC(=S)N(CC)CC` : Not Active

Ki reading for Cl.NC[C@H]1CC[C@H](C(=O)Oc2ccc(CCC(=O)O)cc2)CC1 [CETRAXATE HYDROCHLORIDE] : Not Active

The origin of these recorded values is ChEMBL document CHEMBL1909046.
